Hello, the source for this data is patent US9789181B2, in case you need it.

- Assay Target: purified HLA DRB1 *0405 (Homo sapiens, UniProt P01903+P01911, A100R/A169T/D86S/F76Y/I96L/K127E/L162R/M171V/N62H/P40V/Q125Y/R42H/S133A/S149N/S66Y/V115G/V209L/W38E)
- Procedure Summary: IC50nM to purified HLA | DRB1 *0405
Where no end group is shown, it is not given here.
Reported Endpoint: IC50 (nM)
# number only, unit nM dropped from output

AAAFFVAANTLHAAA [SEQ ID NO: 15]; 27

Could you now look at the following sequence, please?
Given item AAAFFVAAWTLKAAA [SEQ ID NO: 11] , the value recorded as its IC50 is 31
